Entries and their % Protection from CPE values follow.
biological target: human TMEM106B (human, UniProt Q9NUM4 2-274); experiment: cell-based or functional assay; note: test concentration or dose not given here
attribute measured: % Protection from CPE (%)

binder: TM-62 (antibody, V domains shown, mouse hybridoma mAb) VH: QVQLQQPGTELVRPGSSVKLSCKAAGYTFTRYWMHWVKQRPIQGLEWIGNIDPSDSETQYNPKFKDKATLTVDRSSSTAYMHLSSLTSEDSAVYYCARLTTLDYAMDYWGQGTSVTVSS VL: QIVLTQSPAIMSASPGEKVTISCSASSSVSYMYWYQQKAGSSPKPWIHRTSNLASGVPARFSGSGSGTSYSLTIRSMEAEDAATYYCQQYHSYPPTFGVGTKLELK
observed: 84.2

binder: TM-34 (antibody, V domains shown) VH: EVQLVESGGGLVKPGGSLKLSCAASGFSFSDSGMDWVRQAPEKGLEWFAYISSGSSTTHYADTVKGRFIISRDNAKNTLFLQMTSLRSEDTAMYYCVRRDGNYWYFDVWGTGTTVTVSS VL: QIVLSQSPVILSASPGEKVTMTCRATSSVTYMHWYQLKPGSSPKPWIYATSNLASGVPARFSGSGSGTSYSLTISRVEAEDAATYYCQQWSSNPYTFGGGTKLEIK
observed: 4.1

binder: TM-2 (antibody, V domains shown, mouse hybridoma mAb) VH: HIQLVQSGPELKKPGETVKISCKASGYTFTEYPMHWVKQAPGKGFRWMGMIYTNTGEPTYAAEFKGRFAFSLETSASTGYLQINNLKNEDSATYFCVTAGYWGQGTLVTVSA VL: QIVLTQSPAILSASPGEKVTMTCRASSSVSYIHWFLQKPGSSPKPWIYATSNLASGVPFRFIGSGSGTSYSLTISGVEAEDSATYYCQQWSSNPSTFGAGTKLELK
observed: 4.3
